test system: groupe de huit goûteurs expérimentés; assay: Sweetening power judged by a panel of eight experienced tasters against a sucrose reference solution; format: in vivo; conditions: by comparison with a 2 % sucrose solution; weight basis; approximate
Reported metric: pouvoir édulcorant, sur une base pondérale

| Structure string | Observed measurement |
| --- | --- |
| O=C(O)CNC(=Nc1cc(Cl)cc(Cl)c1)NN1CCOCC1 | ~500 fois celui du saccharose |
| N#Cc1ccc(N=C(NCC(=O)O)N2CCCC2)cc1 | ~100 fois celui du saccharose |
| COc1cc(NC(=N[C@@H](C)c2ccccc2)NCC(=O)O)cc(C(F)(F)F)c1 | ~7 000 fois celui du saccharose |
| CCc1cccc(N=C(NCC(=O)O)N[C@@H](C)c2ccccc2)c1 | ~4 500 fois celui du saccharose |
| N#Cc1ccc(N=C(NCC(=O)O)NC23CC4CC(CC(C4)C2)C3)cc1 | ~3 500 fois celui du saccharose |
| C[C@H](NC(=Nc1cccc(Cl)c1)NCC(=O)O)c1ccccc1 | ~30 000 fois celui du saccharose |
| N#Cc1ccc(N=C(NCC(=O)O)Nc2cccc3ccccc23)cc1 | ~60 000 fois celui du saccharose |
| CN(C(=NCc1ccccc1)NCC(=O)O)c1ccccc1 | ~200 fois celui du saccharose |
| O=C(O)CNC(=Nc1cc(Cl)cc(Cl)c1)NC1CCCCCC1 | ~20 000 fois celui du saccharose |
